Please provide measured Kd for the entries that follow.
# test-target: T1, GFP-9S library array, motif 4 ND N98A;D124W (synthetic construct, N98A;D124W)
# T1 chain: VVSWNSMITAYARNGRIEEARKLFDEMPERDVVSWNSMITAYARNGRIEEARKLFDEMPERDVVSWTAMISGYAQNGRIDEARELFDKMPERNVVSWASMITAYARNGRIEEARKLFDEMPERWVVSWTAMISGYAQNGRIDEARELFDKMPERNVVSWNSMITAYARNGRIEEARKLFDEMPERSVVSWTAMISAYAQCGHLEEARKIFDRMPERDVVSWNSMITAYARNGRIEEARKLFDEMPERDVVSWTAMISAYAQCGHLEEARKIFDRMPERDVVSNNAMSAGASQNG
# test-name: high-throughput RNA pulldown from lysate on Ni-NTA beads; HRP: 50 mM Tris pH 8, 150 mM NaCl, 1 mM beta-mercaptoethanol, 50 ug/ml BSA, 3 ug/ml yeast RNA, 0.5% heparin; ITC and FP: Tris pH 8, 200 mM KCl, 5% glycerol; MST: 50 mM Tris pH 8, 200 mM NaCl, 1 mM DTT, BSA, heparin, 0.05% Tween 20
# run-parameters: tags: N-terminal His-eGFP; label: 5' Cy5
Numbers only, in nM.

Prompt: Requested field: Kd. Item: AUUACACGUGA (ssRNA) [Cy5-rpoA]
Response: 129

Note: attention shifts to another entry.
Prompt: Quick one: Kd for AUUAGACGUGA (ssRNA) [Cy5-rpoA-G] ?
Response: 104
